System: M14 melanoma
procedure details: NCI tumour cell line growth inhibition, 48 h
# TGI annotations

{"columns": ["compound", "TGI"],
 "data": [
  ["CN(C)c1ccc(N=C2C=CC(=O)c3ccccc32)cc1", "3.61 µM"],
  ["Clc1c2ccccc2nc2c1[nH]c1ccccc12", "> 100 µM"],
  ["CC1CC[P+](c2ccccc2)(c2ccccc2)CC1", "> 100 µM"],
  ["O=c1oc2ccc([N+](=O)[O-])cc2cc1Br", "> 100 µM"],
  ["Nc1c(F)cc(-c2nc3cc(F)ccc3[se]2)cc1Br", "> 100 µM"],
  ["C#CC1NC(=O)C1N(CC)CC (stereo not drawn)", "> 100 µM"],
  ["O=C1/C(=C/c2ccc(Cl)cc2)CSC/C1=C\\c1ccc(Cl)cc1", "3.92 µM"],
  ["N#CC1C(=O)NC(c2ccccc2[N+](=O)[O-])c2sc3c(F)cccc3c21 (stereo not drawn)", "47.5 µM"],
  ["Cn1c(N=P(c2ccccc2)(c2ccccc2)c2ccccc2)c([N+](=O)[O-])c(=O)n(C)c1=O", "> 100 µM"],
  ["COC(=O)C(/C(=N\\NC(N)=S)C(=O)Nc1ccccc1[N+](=O)[O-])c1cnc2ccccc2n1 (stereo not drawn)", "> 100 µM"],
  ["CSc1c(C#N)c(S)[nH]c(=O)c1C#N", "> 100 µM"],
  ["O=c1c2cc(I)ccc2nc(-c2cccs2)n1/N=C/c1ccccc1", "> 100 µM"],
  ["O=C1CC2SC(COCc3ccccc3)(CCN2Cc2ccccc2)C1 (stereo not drawn)", "> 100 µM"],
  ["COc1ccc(N(C)c2nc(Cl)nc3cnn(C)c23)cc1", "> 100 µM"],
  ["CN(C)c1ccc2nc(CC(O)(C(F)(F)F)C(F)(F)F)ccc2c1", "> 10 µM"],
  ["c1ccc([P+](CCCCCC[P+](c2ccccc2)(c2ccccc2)c2ccccc2)(c2ccccc2)c2ccccc2)cc1", "> 100 µM"],
  ["C=C1C(=O)O[C@H]2[C@H]1CC/C(COC(=O)NCCCCCCCCNC(=O)OC/C1=C/CC[C@@]3(C)O[C@H]3[C@H]3OC(=O)C(=C)[C@@H]3CC1)=C\\CC[C@@]1(C)O[C@@H]21", "0.8 µM"],
  ["Cc1cc2nc(N3C(=O)/C(=C/c4ccc(N(C)C)cc4)N=C3c3ccccc3)sc2cc1C", "73.1 µM"]
]}

---

Test system: MDA-MB-435
procedure details: NCI tumour cell line growth inhibition, 48 h

{"columns": ["compound", "TGI"],
 "data": [
  ["CN(CCCn1ccnc1[N+](=O)[O-])CCCn1ccnc1[N+](=O)[O-]", "> 100 µM"],
  ["S=C(N1CCN(c2ccccc2)CC1)N1CCN(c2ccccc2)CC1", "> 100 µM"],
  ["CC(=O)/C(C=Nc1c(C)n(C)n(C)c1=O)=C(/O)c1ccccc1", "> 50 µM"],
  ["CCCCOC(=O)c1cc(C(=CCC[C@H]2CC[C@@]3(C)[C@@H](CC[C@@H]4[C@@H]3CC[C@]3(C)[C@@H](C(C)CCCC(C)C)CC[C@@H]43)C2)c2cc(Cl)c(O)c(C(=O)OCCCC)c2)cc(Cl)c1O (some centres undefined)", "> 50 µM"],
  ["O=C(/C=C/OC(=O)c1cccc(Cl)c1)c1ccc(Cl)cc1", "> 100 µM"],
  ["NC(=O)C(=CNC(=S)Nc1cccc(C(F)(F)F)c1)C(N)=O", "> 100 µM"],
  ["CCOC(=O)C(Cc1ccc(N(CCCl)CCCl)cc1)NC(=O)CCCN1C(=O)CN=C(c2ccccc2)c2cc(Cl)ccc21 (centres undefined)", "> 59.5 µM"],
  ["O=C1CCCc2ccc3c(c21)CC1(Cc2ccccc2C1)C3", "> 100 µM"],
  ["O=C(O)CCC(C(=O)O)N1C(=O)C2C3CCC(C3)C2C1=O (centres undefined)", "> 100 µM"]
]}

---

System: SK-OV-3 ovarian
procedure details: NCI tumour cell line growth inhibition, 48 h
measurement type: GI50

{"columns": ["chem smiles", "measurement type", "observed measurement"],
 "data": [
  ["C=CCc1c(O)c(C(=O)/C=C/c2ccccc2)c(OC)c2ccoc12", "GI50", "8.08 µM"],
  ["CCCCCC[C@H](C)NC(=O)c1ccc(Nc2nc3ccccc3c3occc23)cc1", "GI50", "5.11 µM"],
  ["COc1ccc(OC)c(/C=C/c2nc(SCc3ccccc3)n(-c3ccc(Cl)cc3)n2)c1", "GI50", "8.21 µM"],
  ["O=[N+]([O-])c1ccc(Sc2ccncn2)c([N+](=O)[O-])c1", "GI50", "8.64 µM"]
]}

---

Test system: KM12 colon
procedure details: NCI tumour cell line growth inhibition, 48 h

{"columns": ["compound", "TGI"],
 "data": [
  ["CCCCN(CCCC)CCCn1cnc2ncccc2c1=O", "> 100 µM"],
  ["O=C(/C=C/OC(=O)c1cccc(Cl)c1)c1ccc(Cl)cc1", "> 100 µM"],
  ["CN(C(=O)c1ccco1)C(=S)N1CCN(c2ccccn2)CC1", "> 100 µM"],
  ["CC(=O)Nc1ccc(Sc2nnc(NC(C)=O)s2)cc1", "> 100 µM"],
  ["C/C(=N/N=C(N)N)c1ccc(NC(=O)Nc2ccc(/C(C)=N/N=C(N)N)cc2)cc1", "> 77.7 µM"],
  ["C=CCc1c(O)c(C(=O)/C=C/c2ccccc2)c(OC)c2ccoc12", "13.6 µM"],
  ["COC[C@H](C)N=CN1CCc2ccccc2C1(Cc1ccccc1)Cc1ccccc1", "27.3 µM"],
  ["COc1cc(/C=N/NC2=NCCCCN2)ccc1O", "> 100 µM"],
  ["COc1ccc(OC)c2c3c([nH]c12)C(=O)Nc1nc(N)nc(N)c1C3", "> 100 µM"],
  ["CCOC(=O)C(OP(=O)(OCC)OCC)C(F)(F)F (configuration not stated)", "> 100 µM"],
  ["COc1ccc(/C(=N\\Nc2ccccn2)c2ccccn2)cc1", "> 32.3 µM"],
  ["C#Cc1cccc(NC(=O)c2ccc(NC(=O)CCl)cc2)c1", "> 82.5 µM"],
  ["Cc1cccc2c1c(=O)c1c(O)cc(O)cc1n2C", "> 100 µM"],
  ["Cc1ccc(S(=O)(=O)Nc2ccc(-c3cc(-c4cccc(F)c4)c(C#N)c(N)n3)cc2)cc1", "10.2 µM"],
  ["CCCN(CCC)C1=Nc2ccccc2-n2cnnc2C1", "> 100 µM"],
  ["COC(=O)C1=C(CCC[C@H](C)O[Si](C)(C)C(C)(C)C)NC(=O)N2[C@@H](CCO)CC[C@H]12", "51.2 µM"],
  ["CSc1c(C#N)c(S)[nH]c(=O)c1C#N", "> 100 µM"],
  ["CC1(C)N=C(N)N=C(N)N1c1cccc(Br)c1", "> 100 µM"],
  ["Cc1ccc(S(=O)(=O)N2CCc3ccc(O)c4c3C2Cc2ccc3c(c2-4)OCO3)cc1 (configuration not stated)", "3.66 µM"],
  ["[N-]=[N+]=CC(=O)CCC(=O)N(c1ccccc1)c1ccccc1", "> 10 µM"],
  ["CCN(CC)CCn1c2ccccc2c(=O)c2c(OC)ccc(OC)c21", "> 100 µM"],
  ["CN(C(=O)c1ccc(OCCCC(=O)O)c(Cl)c1Cl)C1CCCC1", "> 100 µM"],
  ["COC(=O)/C(=N\\NC(N)=O)C(C(=O)C=C(C)C)C(=O)C(=O)Nc1ccc(Cl)c(Cl)c1 (configuration not stated)", "> 100 µM"],
  ["Cc1ccc(N2C(N)=C(C#N)C(C#N)(C#N)C2c2ccccc2)cc1 (configuration not stated)", "33.6 µM"],
  ["CN1CCN(Cc2cc(NC(=O)c3cccc(C#Cc4cccc5[nH]nc(N)c45)c3)cc(C(F)(F)F)c2)CC1", "2.67 µM"],
  ["CCO/C(Cc1ccc(Cl)cc1)=N/NC(N)=S", "> 100 µM"],
  ["Cc1nnc(Sc2nc(C#N)c(C#N)nc2Sc2nnc(C)s2)s1", "> 72 µM"]
]}

---

Tested on: EKVX NSCLC
procedure details: NCI tumour cell line growth inhibition, 48 h

{"columns": ["molecule", "TGI"],
 "data": [
  ["COc1c2c(cc3c1C(=O)Cc1ccc4c(c1CN(C)CC3)OCO4)OCO2", "> 100 µM"],
  ["C/C(=N/Nc1nc(C)cc(=O)[nH]1)C(=O)O", "> 100 µM"],
  ["O=C(C/C=C/c1ccccc1)c1ccccc1", "> 100 µM"],
  ["CC[C@@]1(CCC(=O)NCCc2c[nH]c3ccccc23)CCC(=O)N2CCc3c([nH]c4ccccc34)[C@H]21", "> 100 µM"],
  ["CC1(C)C2CCC(O)(C2)C1N (stereo not given)", "> 100 µM"],
  ["CC[C@H](C)[C@H](NC(=O)[C@@]1(O)[C@H](O)[C@]2(CC)C=CCN3CC[C@@]4(c5cc(Br)c(OC)cc5N(C)[C@@H]14)[C@@H]32)C(=O)OC", "> 100 µM"],
  ["COc1ccc(/C=C/C(=O)c2ccc(OC(=O)/C=C/c3ccccc3)cc2)cc1", "> 92.2 µM"],
  ["O=C(O)CCC(C(=O)O)N1C(=O)C2C3CCC(C3)C2C1=O (stereo not given)", "> 100 µM"],
  ["O=C(N/N=C/C=C/c1ccc([N+](=O)[O-])o1)c1ccc(C(=O)N/N=C/C=C/c2ccc([N+](=O)[O-])o2)cc1", "> 100 µM"],
  ["O=c1c2c(c1=O)-c1ccccc1CN2", "> 100 µM"],
  ["COc1cc(/C=C2/C(=O)N(C(=O)OCc3ccccc3)C(Cc3cc(OC)c(OC)c(C)c3OC)C(=O)N2Cc2ccccc2)c(OC)c(C)c1OC (stereo not given)", "> 100 µM"],
  ["O=c1ccnc2ccc3n[nH][nH]c3c12", "> 100 µM"],
  ["CC(C)[C@@H](C)[C@@]1(C)C[C@@H]1[C@@H](C)[C@H]1CC[C@@H]([C@@H]2CC=C3C[C@@H](O)CC[C@]3(C)C2=O)[C@]1(C)CCO", "26 µM"],
  ["O=c1c2cc(I)ccc2nc(-c2cccs2)n1/N=C/c1ccccc1", "> 100 µM"],
  ["C=CCc1c(O)c(C(=O)/C=C/c2ccccc2)c(OC)c2ccoc12", "20.6 µM"],
  ["COC(=O)C1(C)NCCc2c1[nH]c1ccccc21 (stereo not given)", "> 100 µM"],
  ["O=[N+]([O-])c1ccc(Sc2ccncn2)c([N+](=O)[O-])c1", "8.3 µM"],
  ["COc1ccc(CCc2cc(OC)c(O)c(OC)c2)cc1", "> 100 µM"],
  ["COc1ccc(-c2cc(=O)c3c(O)cc(O)cc3o2)c(OC)c1OC", "> 100 µM"],
  ["CC1(C)OC(=O)C(Cc2ccccc2)(Cc2ccccc2)C(=O)O1", "> 100 µM"]
]}

Where do the numbers come from? From PubChem BioAssay (NCI).
